Data provenance: PubChem BioAssay

Items are presented alongside their recorded viability.
Assay: reducers of endogenous Her2 protein level, primary screen, SKBR3 breast tumor cells, AlphaScreen, ATP viability (AID 461);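 also: percent of carrier control wells set as 100% viability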
Conditions: 18-24 h, measured here: SKBR3 viability, ATP luminescence, at 10 µM
reported endpoint: viability (%)

> print(dat)
                                    compound  recorded.result
 1  COc1cc(C(=O)Nc2ccc3c(c2)C(=O)N(CCC(=O)O)C3=O)cc(OC)c1OC             97.5
 2  C[N+]1=C2CCCCCN2C(O)(c2ccccc2)C1 (configuration not stated)               97
 3  COc1ccc(-c2cc(C(F)F)n3ncc(C(=O)NCC4CCCO4)c3n2)cc1 (configuration not stated)               92
 4  Cc1ccc(C)c(-n2c(CNC(=O)c3ccco3)nnc2SCC(=O)Nc2nnc(C)s2)c1              100
 5         Cc1nc2ccccc2n1CCC(=O)Nc1cccc(F)c1               88
 6           CCOC(=O)c1cccc(NC(=O)c2ccco2)c1             95.5
 7              O=C(Nc1cccc2ccccc12)N1CCOCC1              119
 8  O=C(c1ccccc1)c1coc2ccc(O)c(CN3CCOCC3)c12             78.5
 9  COc1ccc(NC(=O)CSC2=C(C#N)C(c3ccco3)C3=C(CCCC3=O)N2)c(OC)c1 (configuration not stated)              108
10    O=C(CSc1ncnc2c1cnn2-c1ccccc1)Nc1ccccc1               96
11   Cc1nn(-c2ccccc2)c2sc(C(=O)N3CCOCC3)cc12             88.5
12  CC12CN3CC(C)(CN(C1)C3c1cc(Br)ccc1O)C2=O (configuration not stated)             95.5

----------
Assay: reversal of MRP1-mediated doxorubicin resistance, pilot screen, H69AR cells, doxorubicin co-treatment (AID 601)
Conditions: H69AR cells + 2 uM doxorubicin, CellTiter-Glo, 72 h; measured here: viability with 2 uM doxorubicin; at 10 µM; stronger effect = lower value
Threshold 90%. viability below it: true. viability at it or above: false.

> print(dat)
                                    compound  class.label
 1  COc1ccc(N2CCN(c3nc4c(c(=O)[nH]c(=O)n4C)n3CCCc3ccccc3)CC2)cc1         true
 2  CCc1ccc(NC(=O)CSc2nnc(Cc3cccn3C)n2-c2ccc(OC)cc2)cc1        false
 3         CCCn1nnnc1SCC(=O)c1ccc2c(c1)OCCO2        false
 4  CCOC(=O)c1c(C)[nH]c(C(=O)COC(=O)C2CC2C)c1C (centres undefined)         true
 5      O=S(=O)(Nc1ccc(Cc2ccncc2)cc1)N1CCCC1        false
 6             CC(=O)c1ccc(OC(=O)c2cccs2)cc1        false
 7        CC(=O)c1cc2c(=O)c3cc(C)ccc3oc2nc1C         true
 8  COc1cccc(N2C(=O)C(O)=C(C(C)=O)C2c2ccc(OC)c(OC)c2)c1 (centres undefined)        false
 9     Cc1nc(CNS(=O)(=O)c2ccc3c(c2)OCCO3)cs1        false
10         CCC(=O)Nc1ccc(Cl)c(NC(=O)C(C)C)c1        false
11  O=C(C1CCC1)N1CCc2cc(S(=O)(=O)Nc3ccc4c(c3)OCO4)ccc21         true
12  CN(CC(=O)N1CCN(c2ccc(F)cc2)CC1)S(=O)(=O)c1ccc(F)cc1        false
